Cited source for all entries: the supplement of paper PMC10567573

B1: FAM46C (parent)
chain: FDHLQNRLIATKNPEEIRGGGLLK

Variants of: B1
Test: protein stability index of a GFP-peptide fusion (GPS, HEK-293T) (PSI 1-6); higher = more stable;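 further: lentivirally expressed fusions sorted by FACS into six bins by GFP to DsRed ratio, PSI derived from sequencing read proportions per bin multiplied by bin number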
Settings: c terminus: a fixed tail appended

{"columns": ["mutation-name", "protein stability index"],
 "data": [
  ["R7Q", 3.64],
  ["G19Q", 3.74],
  ["I9L", 4.44],
  ["L8E", 5.03],
  ["L23K", 5.07],
  ["H3G", 3.79],
  ["N6A", 3.58],
  ["R7D", 4.65],
  ["R7G", 3.09],
  ["A10Q", 2.25],
  ["H3W", 2.99],
  ["E15C", 2.9],
  ["R7P", 4.07],
  ["G21F", 2.82],
  ["K12V", 4.38],
  ["P14R", 4],
  ["L22V", 4.14],
  ["E16H", 2.55],
  ["E15L", 2.78],
  ["T11C", 3.41],
  ["P14A", 3.69],
  ["R18S", 3.77]
]}
